Tested on: HEK-293T
Test: Multiplex assay against HEK293T
Format: toxicity, cell-based
Conditions: human, 12 h, 1 µM, compound concentration 1 uM
QUANTITY KIND: Population Normal (%)
Be sure to follow the number with its unit.

O=C1c2c(Br)c(Br)c(Br)c(Br)c2C(=O)N1c1ncc[nH]1 100%
Cl.Clc1cc2cc(c1)-c1cnn3ccc(nc13)NCCOCCO2 100%
Cc1noc(C)c1-c1cnc2c(-c3ccc(C(=O)O)cc3)cn([C@@H](C)c3ccccn3)c2c1 100%

// query Hello, please tell me recorded Population Normal (%) for this one: C[C@H](N)COC(=O)[C@@H](CCCCN)NC(=O)Cc1c(-c2ccc3ccccc3c2)[nH]c2c1ccc1ccccc12
// result 91%

* * *

Tested on: U2OS
Test: Multiplex assay against U2OS
Format: toxicity, cell-based
Details: human, 12 h, 10 µM, compound concentration 10 uM
Non-standard residues stand in square brackets, D forms with d. Residues, ends and D or L forms follow the SMILES beside them.
Entries and their Population Hoechst High Intensity Objects (%) values follow.
Number in %, nothing else.

COMPOUND	UNITS OF MEASURE	RECORDED VALUE
CN(C)Cc1cccc(NC(=C2C(=O)Nc3cc(C(N)=O)ccc32)c2ccccc2)c1	%	0

// query Write down measured Population Hoechst High Intensity Objects (%) (U2OS) for this compound. COc1ccc(Cl)cc1[C@]1(F)C(=O)Nc2cc(C(F)(F)F)ccc21
// result 0

// query State the measured Population Hoechst High Intensity Objects (%) (U2OS) of COCCNc1nc2ccc(C#CC3(O)CCCCC3)cc2n1-c1ccnc(N)n1
// result 0

// query Please report Population Hoechst High Intensity Objects (%) with U2OS for item FC(F)(F)c1ccccc1-c1cc(C(F)(F)F)c2[nH]c(C3=NOC4(CCCCC4)C3)nc2c1 .
// result 0

// query Lab note: U2OS assay, enter Population Hoechst High Intensity Objects (%) for CC(C)CC(=O)Nc1cncc(-c2ccc3[nH]nc(-c4nc5c(-c6cccc(F)c6)cncc5[nH]4)c3c2)c1 here
// result 0

// query # lookup: U2OS Population Hoechst High Intensity Objects (%), key = COCCNc1cc(NC(=O)N2CCCc3cc(CN4CCOCC4=O)c(C=O)nc32)ncc1C#N
// result 0

// query Give measured Population Hoechst High Intensity Objects (%) for Cc1ccc(F)cc1C(=O)Nc1ccc(C(=O)N2Cc3cccn3Cc3ccccc32)c(Cl)c1 (U2OS).
// result 5

// query # lookup: U2OS Population Hoechst High Intensity Objects (%), key = CC(C)C[C@@H]1NC(=O)[C@@H](C(C)C)NC(=O)[C@@H]2CCCN2C(=O)[C@@H](CC(=O)O)NC(=O)[C@@H](Cc2c[nH]c3ccccc23)NC1=O [BQ-123] (cyclo(L[dW][dD]P[dV]))
// result 2

* * *

Tested on: Fibroblast
Assay: Multiplex assay against human fibroblast
Type: toxicity, cell-based
Details: 12 h, 10 µM, compound concentration 10 uM
QUANTITY KIND: Population Normal (%)
# unit: % | format: bare number

Example entries begin here.
CNc1nc(NCc2ncccn2)c2c(-c3ccc4ncccc4c3)c[nH]c2n1 100
O=C1c2c(Br)c(Br)c(Br)c(Br)c2C(=O)N1c1ncc[nH]1 100
Cc1noc(C)c1-c1cnc2c(-c3ccc(C(=O)O)cc3)cn([C@@H](C)c3ccccn3)c2c1 100
COCCNc1nc2ccc(C#CC3(O)CCCCC3)cc2n1-c1ccnc(N)n1 100
COc1ccccc1N1CCN(C[C@@H](C(=O)NC(C)(C)C)c2ccccc2)CC1.Cl.Cl 94
CCn1cnc2c(-c3ccc(F)c(-c4ccc(S(=O)(=O)CC)cc4OC)c3)cnnc21 100
CN(C)CCOc1ccc(/C(=C(/CCCO)c2ccccc2)c2ccc(O)cc2)cc1 100
O=C(Nc1ccccc1Br)N[C@@H]1CCN(c2ccc(C(F)(F)F)cn2)C1 100

Switching to the query record.
// query Give a short answer stating reported Population Normal (%) for CC(=O)NCCc1c(Cc2ccccc2)[nH]c2ccccc12 .
// result 97

Reference source for all entries: ChEMBL document CHEMBL5724801
